test-protocol: chemical genetic growth profiling, strain panel (AID 1159580);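 further: tested at 20 µM; growth read once vehicle control cultures reached saturation at 30 °C; 1 = growth at the plate median or of vehicle wells; lower values mean less growth of the strain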
conditions: S. cerevisiae deletion strains, growth OD, locus YDL074C, strain BRE1, active compounds read low
The campaign covered roughly 5,500 compounds. About 2,000 (36%) were called active. About 18% were inconclusive and are not listed. The list shows a part of the results.
Reported values of normalized growth for individual entries

[
  {
    "smiles-notation": "CC(C)[N+](C)(CCOC(=O)C1c2ccccc2Oc2ccccc21)C(C)C",
    "normalized growth": "1.02 (inactive)"
  },
  {
    "smiles-notation": "O=C(O)c1ccccc1OP(=O)(O)O",
    "normalized growth": "1.02 (inactive)"
  },
  {
    "smiles-notation": "O=C(O)c1cc(=O)c2cc(Cl)ccc2[nH]1",
    "normalized growth": "0.972 (inactive)"
  },
  {
    "smiles-notation": "CCc1nc(N)nc(N)c1-c1ccc(Cl)cc1",
    "normalized growth": "0.987 (inactive)"
  }
]

Now for a further compound.
*Q* Tell me the measured normalized growth of "COc1ccc2c(c1)OC[C@@H](Cc1ccc(OC)c(OC)c1)[C@@H]2O" , please.
*A* 0.982 (inactive)

###

test-protocol: chemical genetic growth profiling, strain panel (AID 1159580)
conditions: S. cerevisiae deletion strains, growth OD, locus YML120C, strain ndi1, active compounds read low
Screen size: about 5,500 compounds; about 2,000 (36%) were called active. Not shown: some 18% with an inconclusive outcome. The list shows a part of the results.
property-measured: normalized growth

Worked examples follow.
[
  {
    "molecule": "CC(=O)OC1CC23CC24CCC(OC2OCC(O)C(O)C2O)C(C)(C)C4CCC3C2(C)CC3OC4(CC(C)C3C12C)OC(O)C1(C)OC41 (configuration not stated)",
    "property-measured": "normalized growth",
    "experimental-value": "0.98 (inactive)"
  },
  {
    "molecule": "CCSC(=N)N",
    "property-measured": "normalized growth",
    "experimental-value": "1.01 (inactive)"
  },
  {
    "molecule": "CC(=O)O[C@@](C)(CCC=C(C)C)C1CC=C(C)CC1 (some centres not stated)",
    "property-measured": "normalized growth",
    "experimental-value": "0.985 (inactive)"
  }
]

Let's switch to this molecule now.
*Q* Give its normalized growth value. Item: "NC(N)=Nc1nc(CSCCC(N)=NS(N)(=O)=O)cs1"
*A* 0.977 (inactive)

###

Attribute: normalized growth
test-protocol: chemical genetic growth profiling, strain panel (AID 1159580)
conditions: S. cerevisiae deletion strains, growth OD, locus YDL035C, strain GPR1, active compounds read low
Hit rate of the full screen: of about 5,500 compounds, about 2,000 (36%) were called active. About 18% were inconclusive and are not listed. Some of the results follow.
Answer using only a numeral; do not append any unit.

[
  {
    "compound": "CN1C2CC3C[C@H]1C(O3)C2O (stereo partly drawn)",
    "property-measured": "normalized growth",
    "experimental-value": 1.02
  },
  {
    "compound": "NC(=O)N1c2ccccc2CC(=O)c2ccccc21",
    "property-measured": "normalized growth",
    "experimental-value": 0.996
  },
  {
    "compound": "C[N+](C)(C)CC(=O)[O-]",
    "property-measured": "normalized growth",
    "experimental-value": 0.994
  },
  {
    "compound": "c1ccc(CN(CC2=NCCN2)c2ccccc2)cc1",
    "property-measured": "normalized growth",
    "experimental-value": 1.02
  },
  {
    "compound": "O=C(O)c1cc(=O)c2cc(Cl)ccc2[nH]1",
    "property-measured": "normalized growth",
    "experimental-value": 1
  },
  {
    "compound": "Nc1nc2[nH]c(=O)c(=O)[nH]c2c(=O)[nH]1",
    "property-measured": "normalized growth",
    "experimental-value": 1.01
  }
]

*Q* What value of measured normalized growth is listed for CCc1cccc(C)c1N(C(=O)CCl)C(C)COC (stereo not drawn) ?
*A* 1.02

*Q* Note, next up: "O=C(O)COc1cc(Cl)c(Cl)cc1Cl"
*A* 1.02

*Q* Entry to check: CNC1(C)C2CCC(C2)C1(C)C (stereo not drawn)
*A* 0.993

*Q* Another compound: "COC(=O)c1c(Cl)c(Cl)c(C(=O)OC)c(Cl)c1Cl"
*A* 1.01

*Q* What do you have for "NC(=O)c1ncn([C@@H]2O[C@H](CO)[C@@H](O)[C@H]2O)c1O" ?
*A* 1.02

*Q* // query: CC(C(=O)O)c1ccc2c(c1)[nH]c1ccc(Cl)cc12 (stereo not drawn)
*A* 1

*Q* What about "O=C(O)c1ccccc1OP(=O)(O)O" ?
*A* 1.01

###

test-protocol: chemical genetic growth profiling, strain panel (AID 1159580);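 further: tested at 20 µM; growth read once vehicle control cultures reached saturation at 30 °C; 1 = growth at the plate median or of vehicle wells; lower values mean less growth of the strain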
conditions: S. cerevisiae deletion strains, growth OD, locus YAL026C, strain drs2, active compounds read low
Screen size: about 5,500 compounds; about 2,000 (36%) were called active. Roughly 18% stayed inconclusive and do not appear here. The list shows a part of the results.
Some compounds, each annotated with its measured normalized growth.
Lab note: write the figure by itself, no unit.

Completed entries (count: 2):
[
  {
    "compound": "CN=C(NC#N)NCCSCc1nc(N=C(N)N)cs1",
    "experimental-value": 0.981
  },
  {
    "compound": "C=CC1=C(C(=O)O)N2C(=O)[C@@H](NC(=O)/C(=N/O)c3csc(N)n3)[C@H]2SC1",
    "experimental-value": 1.02
  }
]

*Q* Which value of normalized growth has been reported for O=C1CC(c2ccc(O)c(O)c2)Oc2cc(O)cc(O)c21 (centres undefined) in the records?
*A* 1

###

test-protocol: chemical genetic growth profiling, strain panel (AID 1159580);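 further: tested at 20 µM; growth read once vehicle control cultures reached saturation at 30 °C; 1 = growth at the plate median or of vehicle wells; lower values mean less growth of the strain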
conditions: S. cerevisiae deletion strains, growth OD, locus YMR058W, strain fet3, active compounds read low
In all, about 5,500 compounds went through this assay and about 2,000 (36%) were called active. Roughly 18% stayed inconclusive and do not appear here. This is one part of the list.
Recorded normalized growth for the following compounds

Worked examples, 2 compounds total:
[
  {
    "compound": "CNC1(C)C2CCC(C2)C1(C)C (centres undefined)",
    "experimental-value": "0.995 (inactive)"
  },
  {
    "compound": "COc1ccc(C2CC(=O)c3ccc(OC)cc3O2)cc1 (centres undefined)",
    "experimental-value": "0.932 (inactive)"
  }
]

*Q* Suppose we examine the compound "COc1cc(O)c2c(=O)cc(C)oc2c1CC=C(C)C" ; what normalized growth value has been reported?
*A* 0.845 (active)

###

test-protocol: chemical genetic growth profiling, strain panel (AID 1159580);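 further: tested at 20 µM; growth read once vehicle control cultures reached saturation at 30 °C; 1 = growth at the plate median or of vehicle wells; lower values mean less growth of the strain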
conditions: S. cerevisiae deletion strains, growth OD, locus YFR010W, strain ubp6
The campaign covered roughly 5,500 compounds. About 2,000 (36%) were called active. Inconclusive results (about 18%) are left out. Rule as the data show it: active = normalized growth mostly below about 0.91 (no sharp cut-off); inconclusive = no clear call, values can overlap the other calls; inactive = mostly above about 0.92. This is one part of the list.
The reply should be one of these categories: YES = active, NO = inactive

Check out these entries, answers already filled in.
[
  {
    "compound": "COC(=O)C1[C@H]2C[C@H]3c4[nH]c5ccccc5c4CCN3C[C@@H]2CC[C@@H]1O (some centres not stated)",
    "assigned-category": "NO"
  },
  {
    "compound": "CNc1ccccc1C(=O)N1CCc2c([nH]c3ccccc23)C1=O",
    "assigned-category": "NO"
  },
  {
    "compound": "N=c1nc(N2CCCCC2)cc(N)n1O",
    "assigned-category": "NO"
  }
]

*Q* Which outcome was assigned to CC(C(=O)O)c1ccc2c(c1)[nH]c1ccc(Cl)cc12 (configuration not stated) in this test?
*A* NO

*Q* Let us now turn to CC(=O)OC1CC23CC24CCC(OC2OCC(O)C(O)C2O)C(C)(C)C4CCC3C2(C)CC3OC4(CC(C)C3C12C)OC(O)C1(C)OC41 (configuration not stated)
*A* NO

*Q* And the next one, COc1cccc2c1CCC1CC(=O)CCC21C (configuration not stated) ?
*A* NO

*Q* # iterate: "CCCCOc1ccc(C(=O)CCN2CCCCC2)cc1"
*A* YES

*Q* And "CN=C(NC#N)NCCSCc1nc[nH]c1C" ?
*A* NO

*Q* What do you have for "Cc1cc(C(C)(C)CC(C)(C)C)ccc1OCCOCC[N+](C)(C)Cc1ccccc1" ?
*A* YES

*Q* Similarly, "CCCCOc1ccc(OCCCN2CCOCC2)cc1" ?
*A* YES

*Q* Same for CC(=O)O[C@H]1C(=O)[C@@]2(C)C([C@H](OC(=O)c3ccccc3)[C@]3(O)C[C@H](OC(=O)[C@H](O)[C@@H](NC(=O)c4ccccc4)c4ccccc4)C(C)=C1C3(C)C)[C@]1(OC(C)=O)CO[C@@H]1C[C@@H]2O (some centres not stated)
*A* NO

*Q* What do you have for CCc1ccc(CCOc2ccc(CC3SC(=O)NC3=O)cc2)nc1 (configuration not stated) ?
*A* NO

*Q* Now this one: "O=C(O)COc1cc(Cl)c(Cl)cc1Cl"
*A* NO

*Q* Follow-up item: CC1(C)C2CC[C@]3(C)C(C(=O)C=C4[C@@H]5C[C@@](C)(C(=O)O)CC[C@]5(C)CC[C@]43C)[C@@]2(C)CC[C@@H]1O (some centres not stated)
*A* NO

*Q* What do we get for "O=C(Cc1ccccc1)NO" ?
*A* NO

*Q* Would you kindly repeat that for "CC[C@H]1OC(=O)C[C@@H](O)[C@H](C)[C@@H](O[C@@H]2O[C@H](C)[C@@H](O[C@H]3C[C@@](C)(O)[C@@H](O)[C@H](C)O3)[C@H](N(C)C)[C@H]2O)[C@@H](CC=O)C[C@@H](C)C(=O)/C=C/C(C)=C/[C@@H]1CO[C@@H]1O[C@H](C)[C@@H](O)[C@@H](OC)[C@H]1OC" ?
*A* NO

*Q* Also need CC(=O)O[C@H]1C(=O)[C@@]2(C)C([C@H](OC(=O)c3ccccc3)[C@]3(O)C[C@H](O)C(C)=C1C3(C)C)[C@]1(OC(C)=O)CO[C@@H]1C[C@@H]2O (some centres not stated) , thanks.
*A* NO
